system: Alternaria solani; test: Mycelial growth test; format: cell-based; details: Alternaria solani, 72 h, AS, 10 ppm, read-out: Percent Fungus Growth Inhibition
Binary classification by inhibition at 10 ppm, with 50% as an inclusive lower bound for True; all other cases are False.

1. O=c1c(Cl)nsnc1Oc1ccc(Cl)cc1; False
2. O=c1c(Cl)nsnc1Oc1cccc(C(F)(F)F)c1; True
3. O=C(OCc1ccccc1)Oc1ccc(Oc2nsnc(Cl)c2=O)cc1; False
4. Cc1ccc(Cl)c(Oc2nsnc(Cl)c2=O)c1; True
5. Cc1cc(C)cc(Oc2nsnc(Cl)c2=O)c1; True

----------
tested on: Venturia inaequalis; assay: Spore germination test; type: cell-based; conditions: VI, 2.5 ppm, 48 hours
Property: Spore Germination Rating

1. O=c1c(Cl)nsnc1Oc1c(Cl)cccc1Cl; 0 (0-10)
2. Cc1cc(Oc2nsnc(Cl)c2=O)cc(C)c1Br; 1 (10-40)
3. Cc1cc(Cl)ccc1Oc1nsnc(Cl)c1=O; 0 (0-10)
4. O=C(O)c1ccc(Oc2nsnc(Cl)c2=O)cc1; 4 (80-100)
5. O=c1c(Cl)nsnc1Oc1ccc(Cl)c(Cl)c1; 0 (0-10)
6. Cc1ccc(Oc2nsnc(Cl)c2=O)c(Br)c1; 0 (0-10)
7. O=c1c(Cl)nsnc1Oc1ccc(Br)cc1; 0 (0-10)
8. Cc1cccc(Oc2nsnc(Cl)c2=O)c1; 3 (60-80)
9. O=c1c(Cl)nsnc1Oc1ccc(Cl)cc1Cl; 0 (0-10)
10. O=C(Nc1ccccc1)Nc1ccc(Oc2nsnc(Cl)c2=O)cc1; 4 (80-100)
11. O=c1c(Cl)nsnc1Oc1ccc(F)cc1; 1 (10-40)
12. CC(=O)Nc1ccc(Oc2nsnc(Cl)c2=O)cc1; 3 (60-80)
13. CNC(=O)Nc1ccc(Oc2nsnc(Cl)c2=O)cc1; 4 (80-100)
14. Cc1ccccc1Oc1nsnc(Cl)c1=O; 0 (0-10)
15. Cc1ccc(Oc2nsnc(Cl)c2=O)cc1; 4 (80-100)
16. CC(=O)Nc1ccccc1Oc1nsnc(Cl)c1=O; 4 (80-100)
17. O=c1c(Cl)nsnc1Oc1ccccc1; 2 (40-60)
18. Cc1cc(Oc2nsnc(Cl)c2=O)ccc1Cl; 0 (0-10)
19. O=c1c(Cl)nsnc1Oc1cccc(Cl)c1Cl; 0 (0-10)
20. Cc1cccc(C)c1Oc1nsnc(Cl)c1=O; 0 (0-10)
21. O=c1c(Cl)nsnc1Oc1cccc(C(F)(F)F)c1; 1 (10-40)
22. CC(=O)c1ccc(Oc2nsnc(Cl)c2=O)cc1; 0 (0-10)
23. CCCCOc1ccc(Oc2nsnc(Cl)c2=O)cc1; 0 (0-10)
24. COc1ccc(Oc2nsnc(Cl)c2=O)cc1; 0 (0-10)
25. O=c1c(Cl)nsnc1Oc1ccc(Cl)cc1; 0 (0-10)
26. Cc1ccc(Oc2nsnc(Cl)c2=O)c(C)c1; 3 (60-80)
27. CC(=O)Nc1cccc(Oc2nsnc(Cl)c2=O)c1; 4 (80-100)
28. O=c1c(Cl)nsnc1Oc1ccc([N+](=O)[O-])cc1; 0 (0-10)
29. O=c1c(Cl)nsnc1Oc1cccc(Cl)c1; 0 (0-10)
30. O=c1c(Cl)nsnc1Oc1cccc2ccccc12; 0 (0-10)
31. O=c1c(Cl)nsnc1Oc1c(Cl)cc(Cl)cc1Cl; 0 (0-10)
32. CC(=O)c1cccc(Oc2nsnc(Cl)c2=O)c1; 1 (10-40)
33. Cc1cc(Cl)c(Oc2nsnc(Cl)c2=O)cc1C; 1 (10-40)
34. O=C(O)Cc1ccccc1Oc1nsnc(Cl)c1=O; 4 (80-100)
35. CC(=O)c1ccccc1Oc1nsnc(Cl)c1=O; 4 (80-100)
36. O=c1c(Cl)nsnc1Oc1c(Cl)c(Cl)c(Cl)c(Cl)c1Cl; 0 (0-10)
37. CC(C)(C)c1ccc(Oc2nsnc(Cl)c2=O)cc1; 4 (80-100)
38. CCCCNC(=O)n1c(NC(=O)OC)nc2ccccc21 [Benomyl, reference compound]; 3 (60-80)
39. O=c1c(Cl)nsnc1Oc1ccccc1Br; 0 (0-10)
40. O=c1c(Cl)nsnc1Oc1cc(Cl)cc(Cl)c1; 0 (0-10)
41. Cc1cc(Oc2nsnc(Cl)c2=O)cc(C)c1Cl; 1 (10-40)
42. Nc1ccc(Oc2nsnc(Cl)c2=O)cc1; 4 (80-100)
43. O=c1c(Cl)nsnc1Oc1ccccc1Cl; 0 (0-10)
44. Cc1cc(C)cc(Oc2nsnc(Cl)c2=O)c1; 0 (0-10)
45. CCOC(=O)c1ccc(Oc2nsnc(Cl)c2=O)cc1; 0 (0-10)
46. N#Cc1ccc(Oc2nsnc(Cl)c2=O)cc1; 0 (0-10)

----------
test system: Pyricularia oryzae; test: microbe, parasite or virus in culture; type: cell-based; conditions: Pyricularia oryzae, 72 h, read-out: Percent Fungus Growth Inhibition, PO, 20 ppm, 72 hours
Property: inhibition at 20 ppm (%)

1. Cc1cc(C)cc(Oc2nsnc(Cl)c2=O)c1; 54
2. Cc1ccc(Oc2nsnc(Cl)c2=O)cc1; 41
3. O=c1c(Cl)nsnc1Oc1ccc(Cl)cc1; 59
4. CCCCOc1ccc(Oc2nsnc(Cl)c2=O)cc1; 19
5. Cc1ccc(Oc2nsnc(Cl)c2=O)c(Br)c1; 71
6. O=c1c(Cl)nsnc1Oc1ccc([N+](=O)[O-])cc1; 70
7. O=c1c(Cl)nsnc1Oc1c(Cl)c(Cl)c(Cl)c(Cl)c1Cl; 62
8. O=c1c(Cl)nsnc1Oc1ccccc1Cl; 55
9. O=c1c(Cl)nsnc1Oc1ccc(F)cc1; 54
10. O=c1c(Cl)nsnc1Oc1cccc2ccccc12; 100
11. O=c1c(Cl)nsnc1Oc1cc(Cl)cc(Cl)c1; 68

----------
test system: Phytophthora infestans; assay type: cell-based; conditions: PI, 40 ppm, 48 hours
Listing: Spore Germination Rating of selected compounds
Property: Spore Germination Rating

1) O=C(Nc1ccccc1)Nc1ccc(Oc2nsnc(Cl)c2=O)cc1; 3 (60-80)
2) O=c1c(Cl)nsnc1Oc1ccc([N+](=O)[O-])cc1Cl; 0 (0-10)
3) O=c1c(Cl)nsnc1Oc1cccc(Cl)c1; 0 (0-10)
4) Cc1cc(Cl)ccc1Oc1nsnc(Cl)c1=O; 0 (0-10)
5) O=c1c(Cl)nsnc1Oc1ccc(Cl)cc1Cl; 0 (0-10)
6) CC(=O)c1ccccc1Oc1nsnc(Cl)c1=O; 1 (10-40)
7) Cc1ccc(Oc2nsnc(Cl)c2=O)cc1; 0 (0-10)
8) O=c1c(Cl)nsnc1Oc1ccccc1Cl; 0 (0-10)
9) COc1cc(Oc2nsnc(Cl)c2=O)cc(OC)c1C(C)=O; 0 (0-10)
10) Cc1cc(Oc2nsnc(Cl)c2=O)cc(C)c1Cl; 0 (0-10)
11) O=c1c(Cl)nsnc1Oc1ccc(Cl)cc1; 0 (0-10)
12) O=c1c(Cl)nsnc1Oc1cccc(Cl)c1Cl; 0 (0-10)
13) O=c1c(Cl)nsnc1Oc1c(Cl)cc(Cl)cc1Cl; 0 (0-10)
14) Cc1ccc(Oc2nsnc(Cl)c2=O)c(Br)c1; 0 (0-10)
15) N#Cc1ccc(Oc2nsnc(Cl)c2=O)cc1; 1 (10-40)
16) Cc1cccc(C)c1Oc1nsnc(Cl)c1=O; 0 (0-10)
17) Cc1ccc(Oc2nsnc(Cl)c2=O)c(C)c1; 0 (0-10)
18) O=c1c(Cl)nsnc1Oc1ccc(Cl)c(Cl)c1; 0 (0-10)
19) O=C(OCc1ccccc1)Oc1ccc(Oc2nsnc(Cl)c2=O)cc1; 3 (60-80)
20) COc1ccc(Cl)c(Oc2nsnc(Cl)c2=O)c1; 0 (0-10)
21) CC(=O)Nc1ccccc1Oc1nsnc(Cl)c1=O; 2 (40-60)
22) O=c1c(Cl)nsnc1Oc1cc(Cl)cc(Cl)c1; 0 (0-10)
23) Cc1cc(C)cc(Oc2nsnc(Cl)c2=O)c1; 0 (0-10)
24) Cc1ccccc1Oc1nsnc(Cl)c1=O; 0 (0-10)
25) CCCCOc1ccc(Oc2nsnc(Cl)c2=O)cc1; 0 (0-10)
26) O=C(O)Cc1ccccc1Oc1nsnc(Cl)c1=O; 0 (0-10)
27) O=c1c(Cl)nsnc1Oc1cccc(C(F)(F)F)c1; 0 (0-10)
28) Cc1ccc(Cl)c(Oc2nsnc(Cl)c2=O)c1; 0 (0-10)
29) O=c1c(Cl)nsnc1Oc1ccccc1; 0 (0-10)
30) O=C(Nc1ccccc1)Oc1ccc(Oc2nsnc(Cl)c2=O)cc1; 4 (80-100)
31) C[S+]([O-])c1ccc(Oc2nsnc(Cl)c2=O)cc1 (centres unmarked); 0 (0-10)
32) O=c1c(Cl)nsnc1Oc1ccc(F)cc1; 0 (0-10)
33) CNC(=O)Nc1ccc(Oc2nsnc(Cl)c2=O)cc1; 2 (40-60)
34) Cc1cc(Oc2nsnc(Cl)c2=O)cc(C)c1Br; 0 (0-10)
35) CC(=O)c1ccc(Oc2nsnc(Cl)c2=O)cc1; 0 (0-10)
36) CC(=O)Nc1cccc(Oc2nsnc(Cl)c2=O)c1; 0 (0-10)
37) O=c1c(Cl)nsnc1Oc1ccc(Br)cc1; 0 (0-10)
38) CC(=O)Nc1ccc(Oc2nsnc(Cl)c2=O)cc1; 0 (0-10)
39) CSc1ccc(Oc2nsnc(Cl)c2=O)cc1; 3 (60-80)
40) Cc1cc(Cl)c(Oc2nsnc(Cl)c2=O)cc1C; 0 (0-10)
41) COc1cc(Cl)cc(Oc2nsnc(Cl)c2=O)c1; 0 (0-10)
42) CS(=O)(=O)c1ccc(Oc2nsnc(Cl)c2=O)cc1; 0 (0-10)
43) CCCCNC(=O)n1c(NC(=O)OC)nc2ccccc21 [Benomyl, reference compound]; 1 (10-40)
44) CC(C)(C)c1ccc(Oc2nsnc(Cl)c2=O)cc1; 0 (0-10)
